B1: Tyrosine-protein kinase Lck, residues 63 to 120; numbered along this chain, P06239 (parent)
chain: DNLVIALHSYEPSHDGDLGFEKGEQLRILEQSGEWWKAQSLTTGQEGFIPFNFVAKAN

- Variants of: B1
- Assay Info: abundance fitness (aPCA) (normalised: wild type 0, dead -1); higher = more abundant; growth selection in yeast, the domain comes from the species named
- Test Settings: Homo sapiens
Measurement Type: abundance fitness

variant_code=V54E measurement_type="abundance fitness" val=-0.709
variant_code=A6S measurement_type="abundance fitness" val=-0.348
variant_code=P50H measurement_type="abundance fitness" val=-0.474
variant_code=E11F measurement_type="abundance fitness" val=-0.214
variant_code=E11L measurement_type="abundance fitness" val=-0.164
variant_code=K22C measurement_type="abundance fitness" val=-0.303
variant_code=G33C measurement_type="abundance fitness" val=-0.491
variant_code=E21T measurement_type="abundance fitness" val=-0.129
variant_code=S40R measurement_type="abundance fitness" val=-0.107
variant_code=G19F measurement_type="abundance fitness" val=-0.567
variant_code=Q31I measurement_type="abundance fitness" val=-0.552
variant_code=W36A measurement_type="abundance fitness" val=0.032
variant_code=K37M measurement_type="abundance fitness" val=-0.307
variant_code=T43I measurement_type="abundance fitness" val=-0.941
variant_code=L7Q measurement_type="abundance fitness" val=-0.131
variant_code=H14Q measurement_type="abundance fitness" val=-0.079
variant_code=A55V measurement_type="abundance fitness" val=-0.021
variant_code=Q25C measurement_type="abundance fitness" val=-0.096
variant_code=P50I measurement_type="abundance fitness" val=-0.874
variant_code=D17R measurement_type="abundance fitness" val=-0.009
variant_code=V54M measurement_type="abundance fitness" val=-0.715
variant_code=G44A measurement_type="abundance fitness" val=-0.264
variant_code=L41T measurement_type="abundance fitness" val=-0.149
variant_code=K56P measurement_type="abundance fitness" val=0.04
variant_code=Q45P measurement_type="abundance fitness" val=-0.57
variant_code=G19Y measurement_type="abundance fitness" val=-0.55
variant_code=L3Q measurement_type="abundance fitness" val=-0.122
variant_code=N52Q measurement_type="abundance fitness" val=-0.021
variant_code=W36M measurement_type="abundance fitness" val=-0.075
variant_code=K37R measurement_type="abundance fitness" val=-0.046

Attribution: the Human Domainome abundance scans (Beltran et al. 2025)
